Measurement protocol: folding stability dG unfold from trypsin proteolysis; higher = more stable
Quantity measured: folding stability dG unfold (kcal/mol)
Give the quantity in kcal/mol, number only.

The examples below pair each entry with its known result.
>>> reading("SAGGSAGGWQPIAEHEFENPEDGKKIKIYYWPENGMMRIEFPNGRKHVIPPGDPFKSIEEMIKASAGGSAGG [r6_72_TrROS]")
1.15
>>> reading("SMKVYVKVLPPEYAVAYIYTDKKYEIPIPTTDLEEARAQIEEIVNEIEKRTGVKAEVEITEVAPDTKIPLSA [r9_786_JUSTAS]")
0.182
>>> reading("SAGGSAGGKSYVRLEVYRRNPETDEWEKIRTEVLETDAASGEEVRRRALERVPEDYLVKVELFPSAGGSAGG [r6_623_TrMRF]")
2.01

Recorded folding stability dG unfold (sequence SAGGSAGGSAGPLRPRLYRVRFTNPDGSRREFLVPEGATLEEILKRFNIPESGRVELEPVSAGGSAGGSAGG [r11_340_TrMRF] ): 2.3

###

Measurement protocol: folding stability dG unfold from chymotrypsin proteolysis; higher = more stable
Quantity measured: folding stability dG unfold (kcal/mol)
Give the quantity in kcal/mol, number only.

The examples below pair each entry with its known result.
>>> reading("SAGGEPGVSAEEAAERLRRELGLPGLERVLEVRLTRAVGDPAGRPPEAESLEVEVEVSPEVRERLAALSAGG [r13_552_JUSTAS]")
0.599
>>> reading("SAGSMKTVVRVEKEVDPSTGKITITEEIEDKVYTTTMDLNPETGDATSTVTYPDSTIGTTTVPISSISSSAG [r5_415_JUSTAS]")
0.706
>>> reading("SAGGGSKVIKVEYEKKDGGKVFIDDITDPGDSVEASIFNPKTGVKIPLPFDKLEELEDFIKEFVDKYSAGGS [r16_736_TrMRF]")
-0.154

Recorded folding stability dG unfold (sequence SAGGSAGGSAGGSGMTPIPLEVLERKVTEYDPKNGKITVEALAILPDGTPVKLKFTVELSAGGSAGGSAGGS [r4_184_JUSTAS] ): 1.37

###

Measurement protocol: folding stability dG unfold from trypsin proteolysis; higher = more stable
Here the recorded folding stability dG unfold is given for each entry.
Give the quantity in kcal/mol, number only.

The examples below pair each entry with its known result.
>>> reading("SAGGGKIVFTEGYLLAEFPPTDLRVARPIPPDRPELALEEVADAFIAEMEAEFGFPPPEDVRVEVLASAGGS [r8_402_TrMRF]")
0.28
>>> reading("SAGGSVKQIALRIARDMGYPNVKVEEIPIEKTPNGWVQIPITVEHPKDGKPIGPFQIHIRPGDPIVSAGGSA [r2_137_TrROS]")
1.17

# ---- query sequence ----
Recorded folding stability dG unfold (sequence SAGGKKKPKIRIKVEIDGKTVEVEVESPEELVEALKELGFEVEVVEVTEKTVVIKLKDGKLIRIEKESAGGS [r8_365_TrROS_Hall] ): 1.91

###

Measurement protocol: folding stability dG unfold (combined trypsin and chymotrypsin); higher = more stable
Quantity measured: folding stability dG unfold (kcal/mol)
Give the quantity in kcal/mol, number only.

The examples below pair each entry with its known result.
>>> reading("SASFRLEFPGVRIEVEVEEVEVFPRPDGRPYRLYRAKIRFLDVPEELQALDFPFSLDDEIEVLFLVSLDSAG [r14_942_TrMRF]")
4.18
>>> reading("SAGKPKVKVETVTIEVDGKKIKIEVVELENGEKLVRVEVFDENGELVETKTVTLEELKKLLEKAGIEVSAGG [r19_90_TrROS_Hall]")
1.84
>>> reading("SAGGSAGGSAGGKLPPGDIIPMEFEAEFPVYKRDPEGGDWEPIGPMRIDFTIIIRLPPGSAGGSAGGSAGGS [r10_1115_TrROS]")
2.67
>>> reading("SAGGMPLDSPEVQRRLAALKEALAKAEALREAGLEVKVVSIEFDPETREVTIEVEVRPAPPPPPEEPSAGGS [r8_277_TrROS_Hall]")
1.92
>>> reading("SAGGMVTIELREVSEEEALKLAEELPPNTLLIPFPFGNLVLPVRVPDDPEVREKVAEEIRKFLEALPSAGGS [r16_311_TrMRF]")
0.67

Recorded folding stability dG unfold (sequence SAGLPIPEGATVKTLESSESVEGNKTVKTDKIIVTFPDGSTKEVEVVTTYDPNGNPTTTYIVGNKKIPLSAG [r5_507_JUSTAS] ): 1.32

###

Measurement protocol: folding stability dG unfold from chymotrypsin proteolysis; higher = more stable
Quantity measured: folding stability dG unfold (kcal/mol)
Give the quantity in kcal/mol, number only.

The examples below pair each entry with its known result.
>>> reading("SAGGSAGGSAEKDVKLLDVEELEEERVALVEFPVDPKVVRIKFDKDMTIDEIKKKAKELAGSAGGSAGGSAG [r3_142_TrMRF]")
0.523
>>> reading("SAGGSAGGSAAPVVREIEIDLPYPDGSPLTVEKVTEEPAPGTVHYEIKLPDGTVITRTVPTFSAGGSAGGSA [r18_370_JUSTAS]")
-1.03
>>> reading("SMKLIGYDPVTGKPVTLTFDPETKTVTVTHPNGEKITAPAESITFDPETGTVTITLPTKTVTFYVPPEANSA [r9_325_TrMRF]")
4.93

# ---- query sequence ----
Recorded folding stability dG unfold (sequence SAGGEKIKLKVVIKVPKELKNLSKEEIEELLKKKLGPNYKITKVEIKVEKNENGEEYLVVEVEIEKESAGGS [r16_408_TrROS_Hall] ): 3.37

###

Measurement protocol: folding stability dG unfold from trypsin proteolysis; higher = more stable
Quantity measured: folding stability dG unfold (kcal/mol)
Give the quantity in kcal/mol, number only.

>>> reading("SAGMTIVVEVPKKDITPEELAKKLEERFGLKVVEIKVEEVEEDKVRVTIRFEETGETLELTAEEIKELLSAG [r5_550_TrROS_Hall]")
4.6

Recorded folding stability dG unfold (sequence SAGGSASIEIPVGDKPVRIEILSLEPEGERVRARAVVYFPDDPEYREISGDLTLEELIDAILEAIGSAGGSA [r15_944_TrMRF] ): 1.3

Recorded folding stability dG unfold (sequence SAGGSAGGSAGLPPGDYRLFPFTVTITIPPIKVKDPNGDEHEIDNLEISITIYFFVPAGDSAGGSAGGSAGG [r11_907_TrROS] ): 3.43

Recorded folding stability dG unfold (sequence SIWFSPGKKYKIDEIRFGGWEIEKFTAQVGPDGNIQIPMDIKPVKKPPPPPPVVRNPEDGKYYDPGDPKDSA [r9_603_TrROS] ): -0.127

###

Measurement protocol: folding stability dG unfold (combined trypsin and chymotrypsin); higher = more stable
Quantity measured: folding stability dG unfold (kcal/mol)
Give the quantity in kcal/mol, number only.

>>> reading("SAGGSAPKEGTIWIMIPVRYERDPNGKVKPISAEQIADLFQELGFPIKIDEIFDSPGYIMIRIKVKSAGGSA [r15_225_TrROS]")
3.04
>>> reading("SAGMVEVLEEKTDPNSDLVTVTLYAPDVPDGFRVVVYPKDGVPIEISIKRGEEVVLKLPANVEKIEFIGSAG [r14_671_JUSTAS]")
2.51
>>> reading("SAGGSAGGSMPVKVITTISRETVPLPNGDPGARYTVTTTVTTDSTVVSTTTTTFSSEAELAAASAGGSAGGS [r12_461_JUSTAS]")
0.894
>>> reading("SAGGPLTLEFTLPNGDEVGDVTVEPLPDDSYIVTVVAEDKDRPGVYYVSLVRIPPTDRTLEVVSGPVYSAGG [r13_370_TrMRF]")
1.2
>>> reading("SAGGSAGGSAGGSGMTPIPLEVLERKVTEYDPKNGKITVEALAILPDGTPVKLKFTVELSAGGSAGGSAGGS [r4_184_JUSTAS]")
1.37

Recorded folding stability dG unfold (sequence SAGGSAGGSAAISIDLPPNSVLNISIPVTEPGGKPYTVKISVYSTPLPSNSYELNIKVTIVSAGGSAGGSAG [r3_347_JUSTAS] ): 4.43

Recorded folding stability dG unfold (sequence SKKVKPIATIDVEGMSLEELLAAIKAALPPGEKAIVRIVNADGEVRTIEIDAKTGEIKSLPPGARIYIYPSA [r9_853_TrROS_Hall] ): 2.02

###

Measurement protocol: folding stability dG unfold from chymotrypsin proteolysis; higher = more stable
Would you mind labelling by folding stability dG unfold? At or over 1 kcal/mol is rule met, under is rule not met.

Reference set, count: 3
>>> assigned_category("SAGGMMKLELEIEKEDGKKYKIEVEYNKEEPVLKIKIYDKNGKKIKEIEIKAKSLEEALEAAKKLLKSAGGS [r16_158_TrROS_Hall]")
"rule met"
>>> assigned_category("SAGGSAKVVEIELVEVRRNANGERIVRVRIKLPNGEERTIEMSEEELKELLAKLPPNVEIVAIEEVSAGGSA [r15_339_TrROS_Hall]")
"rule met"
>>> assigned_category("QRVLPFKNPDGDYWVMIMNPNGDPLVEHRIPNDPEQMEKAIHKLMEQLPNFDPEDLRIAVMNPKNGESQEIS [r1_55_TrROS]")
"rule not met"

Reported folding stability dG unfold reaches at least 1 kcal/mol for SAGGSAGGSAGGSKIYKLKVNGSVEKLIENLKKAGFKVEILSVYYDPETKELYVLFKISSAGGSAGGSAGGS [r4_315_TrMRF] ?
rule met

Reported folding stability dG unfold reaches at least 1 kcal/mol for SAPLTPEEAEEWAETLADELADKAGIPNVEIKVEPSPDGYWTAEIRFPNNGKKIRITWENGRPKITEIESAG [r14_925_TrROS] ?
rule met
